The reported numbers originate from ChEMBL document CHEMBL1208677.

tested on: DU-145 (human); assay: Cytotoxicity against human DU145 cells after 72 hrs by MTT assay; conditions: DU-145, 72 h
outcomeMeasure: pIC50
Please treat pIC50 as minus the base-10 logarithm of the molar concentration.

Supply pIC50 value. Item: Oc1ccc(C2C/C(=N\NC(=S)N3CCCCC3)c3ccc(O)cc3O2)cc1 (stereo not given)
4.40

Supply pIC50 value. Item: CC(C)(C)NC(=S)N/N=C1\CC(c2ccc(O)cc2)Oc2cc(O)ccc21 (stereo not given)
4.51

Supply pIC50 value. Item: Oc1ccc(C2C/C(=N\NC(=S)N3CCCC3)c3ccc(O)cc3O2)cc1 (stereo not given)
4.43

Supply pIC50 value. Item: CCCN(CCC)C(=S)N/N=C1\CC(c2ccc(O)cc2)Oc2cc(O)ccc21 (stereo not given)
4.49

Supply pIC50 value. Item: CN1CCN(C(=S)N/N=C2\CC(c3ccc(O)cc3)Oc3cc(O)ccc32)CC1 (stereo not given)
5.00
